For each entry below, report its apparent KD of MS2 coat protein value.
system: MS2 coat protein; test: apparent KD of MS2 coat protein; designed switch direction (-1 OFF switch, 1 ON switch): -1; higher = weaker reporter binding; settings: input ligand: microRNA oligo, concentration not stated
// note: answer is a bare numeric in nM

Query block: Observed apparent KD of MS2 coat protein on MS2 coat protein for ACAUGAGGAUCACCCAUGUUCGGCUGGUCCGUUUCGGCUGUCGAGGAUAUAGUUCGGUGUCCGCGCUAGAAGGCGGGAGCUGGC [Aenatbe mod 64] (Eterna round: R96, puzzle: Exclusion NG 3) , please.
Result block: 39

Query block: Try this sequence too: UAAAUAAAUGUAGGAUAUCUGCACGUGUAGUGCAGAGAAGGACAUGAGGAUCACCCAUGUAUAGUAGCUUCGGCUACAAAUAAU [ENG1-C3] (Eterna round: R96, puzzle: Exclusion NG 1)
Result block: 69.3

Query block: Then UCACGGGACUAAGGAUAUACAUGAACUAUUAUUGUAGAAGGUAGAAUGUUAGCUUAUACACUAAACAUGAGGAUCACCCAUGUA [JR_ExcNG1_Sub095] (Eterna round: R96, puzzle: Exclusion NG 1) ?
Result block: 26.9

Query block: Try the sequence CAUGAUUGGGAAGGAUAUUGACCUAGUUAGCGCCGAGAAGGUCCCUGUCACAUGAGGAUCACCCAUGUGAAUCUGGUGUUCGAG [Ex NG1 #94] (Eterna round: R96, puzzle: Exclusion NG 1)
Result block: 17.9

Query block: What do you have for AAAGGAUGCCUAGGAUAUUGACGAAGAAAGGAUUAAGAAGGAGGAAAUAUAUGAGGGAUCCACAUGAGGAUCACCCAUGUACAC [Beveinveor] (Eterna round: R96, puzzle: Exclusion NG 1) ?
Result block: 458

Query block: Similarly, CAAUAUUACUGAGGAUAUCCUAUUGUAUUUCAGGGAGAAGGCAGACUCAACAUGAGGAUCACCCAUGUAAGACGGGUACUAGAU [Ex NG1 #18] (Eterna round: R96, puzzle: Exclusion NG 1) ?
Result block: 77.4

Query block: Could you do the same for GUCCGGCAUGUAGGAUAUGGAUCCGAUUAGGAUUUAGAAGGACAUGAGGAUCACCCAUGUACAUGUAAUUAGUCAUUACCGGAC [EXclNG1-LROPPY02] (Eterna round: R96, puzzle: Exclusion NG 1) , please?
Result block: 17.8

Query block: What do you have for GGUACUCAAAGAGUACCAAUACGAACAUGAGGAUCACCCAUGUAGGAUAUGCUACUCAAAGAGUAGCAGAAGGACGUGUAUCUU [Far Half Aptamer v3] (Eterna round: R96, puzzle: Exclusion NG 3) ?
Result block: 18.9

Query block: Now consider UACAUGAGGAUCACCCAUGUUUUGUCGUGUAUGGUAUUUAUCUAGGAUAUCGUGUUAUUUAACCACGAGAAGGAGAGUAUCAAU [MOD3 Solution 21 by JMF] (Eterna round: R96, puzzle: Exclusion NG 3) and answer again.
Result block: 21.5
